This collection of values is drawn from patent US20070014720A1.

Molecular target: T1, human CD20 (human, UniProt P11836 1-297)
T1 sequence (looked up): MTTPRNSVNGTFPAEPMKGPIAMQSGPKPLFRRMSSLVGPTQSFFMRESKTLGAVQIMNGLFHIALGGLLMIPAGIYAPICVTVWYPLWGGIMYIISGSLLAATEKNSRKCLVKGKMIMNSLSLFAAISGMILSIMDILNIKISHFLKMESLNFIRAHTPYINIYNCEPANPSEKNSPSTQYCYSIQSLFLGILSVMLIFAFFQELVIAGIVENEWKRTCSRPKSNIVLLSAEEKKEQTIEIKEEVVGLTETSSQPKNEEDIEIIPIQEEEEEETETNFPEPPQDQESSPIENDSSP
Assay: cell-based or functional assay
Measurement kind: EC50 µg/ml Ramos CDC (µg/mL)
# value in µg/mL; strip the unit string

IN: Using known records, supply EC50 µg/ml Ramos CDC for mAb 1.13.2 (antibody, human IgG1, V domains shown, Human IgG1 kappa; also called 1.13.1; 50-001H1_13_1) VH: EVQLVQSGAEVKKPGESLKISCKGSGYSFTNYWIGWVRQMPGKGLEWMGIIYPGDSDTRYSPSFQGQVTISADKSISTAYLQWSSLKASDTAMYYCARQGDYYHYSGMDVWGQGTTVTVSS VL: DVVMTQSPLSLSVTLGQPASISCRSSQSLVYNDGDTYLNWFQQRPGQSPRLLIYKVSNWDSGVPDRFSGSGSGTDFTLKVSRVEAEDVGVYYCMQGTHWPLTFGGGTKVEIK
OUT: 6.82
